# System: NCI-H358 cells
# Protocol Text: NCI-H358 CTG proliferation assay (120 h) (NSCLC, G12C)
# Format: cell-based, human
# Condition Description: Homo sapiens, assay 1, CTG, read-out: H358 (assay 1) IC50
pIC50: −log10 of the molar value.
Result Type: pIC50

INSERT INTO assay_data (compound, result_type, measured_result) VALUES
  ('C[C@H](Oc1cc(N2CCN(C)C2=O)nc(-c2noc3c2CCC[C@@]32CCCc3sc(N)c(C#N)c32)n1)[C@@H]1CCCN1C [II-75]', 'pIC50', 7.31),
  ('C[C@H](Oc1cc(N2CCNCC2)nc(-c2noc3c2CCC[C@@]32CCCc3sc(N)c(C#N)c32)n1)[C@@H]1CCCN1C [II-45]', 'pIC50', 6.01);

I = CNC(=O)c1ccn(-c2cc(O[C@@H](C)[C@@H]3CCCN3C)nc(-c3noc4c3CCC[C@@]43CCCc4sc(N)c(C#N)c43)n2)n1 [II-20]
II = CO[C@@H]1C[C@@H]([C@H](C)Oc2cc(-c3ccn(C)n3)nc(-c3onc4c3CCC[C@@]43CCCc4sc(N)c(C#N)c43)n2)N(C)C1 [I-23]
III = C[C@H](Oc1cc(N2CCNC2=O)nc(-c2noc3c2CCC[C@@]32CCCc3sc(N)c(C#N)c32)n1)[C@@H]1CCCN1C [II-64]
IV = CO[C@@H]1C[C@@H]([C@H](C)Oc2cc(-c3ccn(C)n3)nc(-c3noc4c3CCC[C@@]43CCCc4sc(N)c(C#N)c43)n2)N(C)C1 [II-91]
V = C[C@H](Oc1cc(N2CCNC3(CC3)C2)nc(-c2noc3c2CCC[C@@]32CCCc3sc(N)c(C#N)c32)n1)[C@@H]1CCCN1C [II-54]
Would you mind ranking these compounds by ascending pIC50? Output the labels ranked as instructed. V, IV, III, I, II

* * *

# Assay Target: KRAS (G12C)::SOS1 (Homo sapiens (Human), UniProt P01116, C118S/C51S/C80L/G12C)
# Sequence (P01116 other isoform, or with tags, fused parts or gaps G12C/C51S/C80L/C118S): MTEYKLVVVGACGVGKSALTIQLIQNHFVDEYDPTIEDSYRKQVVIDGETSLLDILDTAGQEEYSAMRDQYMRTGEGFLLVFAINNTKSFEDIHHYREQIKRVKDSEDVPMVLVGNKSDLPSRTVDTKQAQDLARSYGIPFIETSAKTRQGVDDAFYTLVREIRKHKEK
# Protocol Text: KRAS::SOS1 AlphaScreen binding assay, KRAS G12C
Result Type: IC50 (nM)

INSERT INTO results (smiles_code, unit_info, measured_result) VALUES
  ('C[C@H](Oc1cc(-n2ccc(Br)n2)nc(-c2noc3c2CCC[C@@]32CCCc3sc(N)c(C#N)c32)n1)[C@@H]1CCCN1C', 'nM', 2),
  ('C[C@H](Oc1cc(-c2ccn(-c3ccsc3)n2)nc(-c2noc3c2CCC[C@@]32CCCc3sc(N)c(C#N)c32)n1)[C@@H]1CCCN1C', 'nM', 3),
  ('C[C@H](Oc1cc(-c2cnsc2)nc(-c2noc3c2CCC[C@@]32CCCc3sc(N)c(C#N)c32)n1)[C@@H]1CCCN1C', 'nM', 2),
  ('Cc1cn(-c2cc(O[C@@H](C)[C@@H]3CCCN3C)nc(-c3noc4c3CCC[C@@]43CCCc4sc(N)c(C#N)c43)n2)nn1', 'nM', 4),
  ('C[C@H](Oc1cc(-n2ccc(-c3ccccn3)n2)nc(-c2noc3c2CCC[C@@]32CCCc3sc(N)c(C#N)c32)n1)[C@@H]1CCCN1C', 'nM', 2);

I = C[C@H](Oc1cc(N2C[C@H](C)NC3(CC3)C2)nc(-c2noc3c2CCC[C@@]32CCCc3sc(N)c(C#N)c32)n1)[C@@H]1C[C@@H](F)CN1C
II = C[C@H](Oc1cc([C@H]2CCNC2)nc(-c2noc3c2CCC[C@@]32CCCc3sc(N)c(C#N)c32)n1)[C@@H]1CCCN1C
Looking at recorded values for IC50, does I or II come in lower? Lab note: record the label of whichever item you select. II
(II: 2 nM, I: 3 nM)

Just for reference, patent US20240174690A1 is where these values come from.
